Cited source for all entries: PubChem BioAssay (NCI)

// reported TGI per item
System: 786-0 renal
PROTOCOL NOTES: NCI tumour cell line growth inhibition, 48 h
PROPERTY MEASURED: TGI

1) C=C(C)OCOCCOC
> 100 µM
2) O=c1nc2c(c(-c3ccc(Br)cc3)[nH]1)COC/C2=C\c1ccc(Br)cc1
> 50 µM
3) C=C1N(C=O)C(C)(C)N(O)C1(C)C
> 100 µM
4) Cc1cc2c(cc1Cl)SC1=NN(C)C(N(C)C)N1S2(=O)=O (stereo unspecified)
> 100 µM
5) O=C(/C=C/C(=O)N1CCCC1)N1CCCC1
> 100 µM
6) Cc1ccc(-c2cc(-c3ccco3)c(C#N)c(=O)n2C2OC(OC(=O)c3ccccc3)C(OC(=O)c3ccccc3)C2OC(=O)c2ccccc2)cc1 (stereo unspecified)
> 100 µM
7) COc1cc(C(c2c(O)c3ccccc3oc2=O)c2c(O)c3ccccc3oc2=O)cc(Br)c1O
37.8 µM
8) O=c1c(Cc2ccc(Cl)cc2)nnc2sc(-c3ccc(-c4ccc(F)c(Cl)c4)o3)nn12
> 100 µM
9) Cc1cc(C)c2c(=O)cc(-c3cccc(F)c3)[nH]c2n1
> 64.2 µM
10) O=C(O)c1ccc2c(c1)CCCC(c1ccc(Cl)cc1Cl)=C2c1ccc(O[C@H]2CCN(CCCF)C2)cc1
28 µM
11) CSc1nc(NC(C)C)c2c(n1)Sc1nc3ccccc3n1N=C2
16.7 µM
12) CCC1=C(C(C)=O)[C@@H]2CCCCC[C@@H](C(=O)OC)C2C1=O (stereo partly specified)
> 100 µM
13) COc1ccccc1CN=C1Nc2ccncc2S(=O)(=O)N1c1ccccc1
> 100 µM
14) N.N.N.N.O=C([O-])C(Cl)Cl.O=C([O-])C(Cl)Cl.[Co+3].[O-][Cl+3]([O-])([O-])[O-]
> 100 µM
15) Cn1c(=O)c2c(nc3n(Cc4ccccc4)c(=O)c(NCCCBr)cn23)n(C)c1=O
> 100 µM
16) CCc1c(CNc2ccc(C(=O)NC(CC(=O)O)C(=O)O)cc2)ccc2nc(N)nc(N)c12 (stereo unspecified)
> 1000 µM
17) O=C(CCc1cc(O)cc(O)c1)NCCCNC(=O)CCc1cc(O)cc(O)c1
> 100 µM
18) CC(C)C(=O)C(C)(C)CCc1ccccn1
> 100 µM
19) CC(C)C(CC(=O)OCC(CO)OC(=O)CC(C(C)C)C(C)C)C(C)C (stereo unspecified)
27.9 µM
20) COc1ccc2[nH]c(O)c(C(=Nc3ccc(N(C)C(=O)CN4CCN(C)CC4)cc3)c3ccccc3)c2c1
5.52 µM
21) N#C/C(C(=O)Nc1ccc(Cl)cc1)=C(/N)N1CCCC1
> 100 µM

---

// reported TGI per item
Test system: DU-145 prostate
PROTOCOL NOTES: NCI tumour cell line growth inhibition, 48 h
PROPERTY MEASURED: TGI

1) Nc1ccc(C(=O)CC(N)C(=O)O)cc1O (centres undefined)
> 100 µM
2) COc1ccc(-c2oc3c(OC)c(OC)c(OC)c(OC)c3c(=O)c2OC)cc1OC
> 100 µM
3) Cc1cc(S(=O)(=O)/N=C(/C(=C=[N-])C#N)[n+]2ccc(N(C)C)cc2)c(SCC(=O)O)cc1Cl
> 100 µM
4) CNCCn1c(=O)c2cc(OC)c(OC)cc2c2ccc3cc4c(cc3c21)OCO4
2.51 µM
5) COc1cccc2c1C(=O)c1c(O)c3c(c(O)c1C2=O)C[C@H](O)C[C@@H]3OC1CC(N)C(O)C(C)O1 (some centres undefined)
11.6 µM
6) S=C(N/N=C\C(=N/NC(=S)N1CCCCC1)c1ccccc1)N1CCCCC1
3.02 µM
7) CCOc1cc(/C=N\Nc2nnc(C)n2N)c(C)cc1N(CCCl)CCCl
> 100 µM
8) Fc1cc2[nH]ncc2c2c3c(c(-c4cn[nH]c4C(F)(F)F)nc12)C1CCC3C1 (centres undefined)
7.52 µM
9) COc1ccc(Cn2cc3c(c2)-c2oncc2CC3)cc1
34.5 µM
10) CC1CCC2(NC1)OC1CC3C4CC=C5CC(OC6OC(CO)C(OC7OC(C)C(O)C(O)C7O)C(O)C6OC6OC(C)C(O)C(O)C6O)CCC5(C)C4CCC3(C)C1C2C (centres undefined)
8.61 µM
11) COC(=O)C1C(C(=O)OC)C2(OC(c3ccc(Cl)cc3)=CC2=O)C12OC(c1ccc(Cl)cc1)=CC2=O (centres undefined)
> 100 µM
12) CCn1c2ccc(C(=O)CCCN3CCCCC3)cc2c2cc(C(=O)CCCN3CCCCC3)ccc21
18.2 µM
13) COC(=O)c1nc(Cl)nc(Cl)c1Cl
> 100 µM
14) COc1ccc(-c2c3c(n(C4OC(CO)C(O)C(O)C4O)c(=S)c2C#N)CCC3)cc1 (centres undefined)
> 100 µM
15) CC1C(NNc2ccccc2)Oc2cc3c(cc2C1c1ccccc1O)OCO3 (centres undefined)
15.1 µM
16) O=C(O)C1CCCCC1C(=O)O.[NH-]C1CCC1.[NH2-].[Pt+2] (centres undefined)
25 µM
17) Cc1cc2c(cc1Cl)SC1=NN(C)C(N(C)C)N1S2(=O)=O (centres undefined)
> 100 µM
18) CC1=NN(c2nc(N)nc(-c3sccc3N)n2)C(C)(C)C1
> 100 µM
19) c1cncc(CC2(c3cc4ccccc4[nH]3)OCCO2)c1
> 100 µM
20) CCOc1ccc(Nc2nc(N)nc(N)c2N)cc1
> 100 µM
21) c1ccc2c(c1)Sc1nccc3ccnc-2c13
> 100 µM
22) O=C(O)c1ccc2c(c1)CCCC(c1ccc(Cl)cc1Cl)=C2c1ccc(O[C@H]2CCN(CCCF)C2)cc1
27.5 µM
23) Cc1ccc(-c2csc(NC(=O)CN3CCN(c4cc5c(cc4F)c(=O)c(C(=O)O)cn5C4CC4)CC3)n2)cc1
> 100 µM
24) CS(=O)(=O)Nc1ccc2c(c1)N(S(C)(=O)=O)CC2CCl (centres undefined)
> 100 µM
25) CC[PH+](CC)CC.O=COC1OC([S-])C(OC=O)C(OC=O)C1OC=O.[Au+] (centres undefined)
3.33 µM
26) CC(=O)OCC1OC(n2c(-c3ccccc3)c(N=Nc3ccccc3)c(C)c(C#N)c2=S)C(OC(C)=O)C(OC(C)=O)C1OC(C)=O (centres undefined)
> 100 µM
27) Cc1[nH]nc(C(=O)n2nc(N)c3ccccc32)c1[N+](=O)[O-]
> 100 µM
28) CN(C)CCCNC(=O)c1cc(NC(=O)c2cc(NC(=O)CCCn3c4ccccc4c4ccccc43)cn2C)cn1C
40.8 µM
29) CCN(CC)C(=S)Oc1cc2oc(=O)cc(C)c2cc1Cl
> 100 µM
30) CN1C(=O)N(C)C(O)C(Cl)(Br)C1=O (centres undefined)
> 100 µM
31) Cc1cc2c(O)c(c1)CN(CC(=O)O)Cc1cc(C)cc(c1O)CN(CC(=O)O)Cc1cc(C)cc(c1O)CN(CC(=O)O)C2
> 100 µM
32) COc1ccc(C2=NN(C=O)C(c3cccc(Nc4ccnc5cc(Cl)ccc45)c3)C2)cc1 (centres undefined)
89.3 µM
33) O=c1[nH]c2nc3ccccc3nc2[nH]c1=O
> 100 µM
34) Cc1ccc(C(=O)N/N=C(\N=Nc2ccccc2)c2ccc(N(C)C)cc2)cc1
> 100 µM
35) C=C1C(OC2O[C@@H]3O[C@@]4(C)CC[C@H]5[C@H](C)CC[C@@H](C2=C)[C@@]35O4)O[C@@H]2O[C@@]3(C)CC[C@H]4[C@H](C)CC[C@@H]1[C@@]24O3 (some centres undefined)
> 50 µM
36) CC1C(=O)OCC2=CCN3CCC(OC(=O)C(C)C1(C)O)C23 (centres undefined)
> 100 µM
37) COc1ccc(-c2ccc(-c3ccc(C(=N)N)cn3)o2)cc1
24.7 µM
38) CC(C)C(CC(=O)OCC(CO)OC(=O)CC(C(C)C)C(C)C)C(C)C (centres undefined)
28.7 µM
39) CCOc1cccc(/C=N/NC(=O)C(=O)Nc2cccc(C(F)(F)F)c2)c1O
> 100 µM
